Quick list: CC50 at 3 h per entry.
PROTOCOL DESCRIPTION: MTS assay, NIH 3T3 cells
Assay type: cell-based, mouse
CONDITION: NIH 3T3 fibroblast cells; Table 6; 50% inhibitory dose against NIH 3T3 mouse fibroblast cells; read-out: ID50
Square brackets hold non-standard residues; d marks the D form. Peptide text beside a SMILES is read from it. Nrpe = C[C@@H](NCC(=O)O)c1ccccc1; Nspe = C[C@H](NCC(=O)O)c1ccccc1; Nlys = NCCCCNCC(=O)O
OBSERVABLE: CC50 at 3 h (µM)

{"MOLECULE": "C[C@H](c1ccccc1)N(CC(=O)N(CCCCN)CC(=O)N(CC(=O)N(CC(=O)N(CCCCN)CC(=O)N(CC(=O)N(CC(=O)N(CCCCN)CC(=O)N(CC(=O)N(CC(N)=O)[C@@H](C)c1ccccc1)[C@@H](C)c1ccccc1)[C@@H](C)c1ccccc1)[C@@H](C)c1ccccc1)[C@H](C)c1ccccc1)[C@H](C)c1ccccc1)C(=O)CN(C(=O)CNCCCCN)[C@H](C)c1ccccc1 [1-Nrpe2,3,5,6] (H-[Nlys][Nrpe][Nrpe][Nlys][Nrpe][Nrpe][Nlys][Nspe][Nspe][Nlys][Nspe][Nspe]-NH2)", "VALUE": 4.8}
{"MOLECULE": "C[C@@H](c1ccccc1)N(CC(N)=O)C(=O)CN(C(=O)CN(CCCCN)C(=O)CN(C(=O)CN(C(=O)CN(CCCCN)C(=O)CN(C(=O)CN(C(=O)CN(CCCCN)C(=O)CN(C(=O)CN(C(=O)CNCCCCN)[C@@H](C)c1ccccc1)[C@@H](C)c1ccccc1)[C@@H](C)c1ccccc1)[C@@H](C)c1ccccc1)[C@@H](C)c1ccccc1)[C@@H](C)c1ccccc1)[C@@H](C)c1ccccc1 [compound 1, H-(NLys-Nspe-Nspe)4-NH2] (H-[Nlys][Nspe][Nspe][Nlys][Nspe][Nspe][Nlys][Nspe][Nspe][Nlys][Nspe][Nspe]-NH2)", "VALUE": 5.1}
{"MOLECULE": "C[C@H](c1ccccc1)N(CC(=O)N(CC(N)=O)[C@@H](C)c1ccccc1)C(=O)CN(CCCCN)C(=O)CN(C(=O)CN(C(=O)CN(CCCCN)C(=O)CN(C(=O)CN(C(=O)CN(CCCCN)C(=O)CN(C(=O)CN(C(=O)CNCCCCN)[C@H](C)c1ccccc1)[C@@H](C)c1ccccc1)[C@H](C)c1ccccc1)[C@@H](C)c1ccccc1)[C@H](C)c1ccccc1)[C@@H](C)c1ccccc1 [1-Nrpe2,5,8,11, H-(Nlys-Nrpe-Nspe)4-NH2] (H-[Nlys][Nrpe][Nspe][Nlys][Nrpe][Nspe][Nlys][Nrpe][Nspe][Nlys][Nrpe][Nspe]-NH2)", "VALUE": 5.2}
{"MOLECULE": "C[C@H](c1ccccc1)N(CC(N)=O)C(=O)CN(C(=O)CN(CCCCN)C(=O)CN(C(=O)CN(C(=O)CN(CCCCN)C(=O)CN(C(=O)CN(C(=O)CN(CCCCN)C(=O)CN(C(=O)CN(C(=O)CNCCCCN)[C@@H](C)c1ccccc1)[C@H](C)c1ccccc1)[C@@H](C)c1ccccc1)[C@H](C)c1ccccc1)[C@@H](C)c1ccccc1)[C@H](C)c1ccccc1)[C@@H](C)c1ccccc1", "VALUE": 3.8}
